system: Protein cereblon/Androgen receptor (Homo sapiens, UniProt P10275+Q96SW2)
Sequence (P10275 whole entry, looked up): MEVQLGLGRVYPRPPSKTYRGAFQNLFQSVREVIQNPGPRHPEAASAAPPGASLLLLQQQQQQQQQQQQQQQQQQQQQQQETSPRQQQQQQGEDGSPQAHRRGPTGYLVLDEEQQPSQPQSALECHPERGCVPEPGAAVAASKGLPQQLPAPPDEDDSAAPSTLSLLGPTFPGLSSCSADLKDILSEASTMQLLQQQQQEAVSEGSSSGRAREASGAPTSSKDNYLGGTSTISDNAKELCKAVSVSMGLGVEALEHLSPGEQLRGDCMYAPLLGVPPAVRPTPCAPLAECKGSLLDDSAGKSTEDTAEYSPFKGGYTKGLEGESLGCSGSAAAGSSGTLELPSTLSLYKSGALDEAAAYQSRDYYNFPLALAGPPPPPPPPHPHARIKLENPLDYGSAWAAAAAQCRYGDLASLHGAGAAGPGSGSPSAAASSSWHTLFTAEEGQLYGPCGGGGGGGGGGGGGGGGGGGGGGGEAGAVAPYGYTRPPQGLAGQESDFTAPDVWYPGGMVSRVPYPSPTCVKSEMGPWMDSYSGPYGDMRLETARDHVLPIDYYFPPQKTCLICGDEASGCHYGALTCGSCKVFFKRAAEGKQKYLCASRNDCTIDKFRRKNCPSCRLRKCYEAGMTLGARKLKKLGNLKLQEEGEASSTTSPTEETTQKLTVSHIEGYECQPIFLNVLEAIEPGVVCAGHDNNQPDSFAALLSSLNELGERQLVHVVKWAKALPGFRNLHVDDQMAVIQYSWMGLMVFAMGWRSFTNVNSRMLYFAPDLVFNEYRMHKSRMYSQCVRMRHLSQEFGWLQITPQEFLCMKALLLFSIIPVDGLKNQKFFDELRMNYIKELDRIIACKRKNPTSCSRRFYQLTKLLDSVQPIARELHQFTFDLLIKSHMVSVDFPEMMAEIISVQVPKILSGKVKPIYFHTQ
Sequence (Q96SW2 whole entry, looked up): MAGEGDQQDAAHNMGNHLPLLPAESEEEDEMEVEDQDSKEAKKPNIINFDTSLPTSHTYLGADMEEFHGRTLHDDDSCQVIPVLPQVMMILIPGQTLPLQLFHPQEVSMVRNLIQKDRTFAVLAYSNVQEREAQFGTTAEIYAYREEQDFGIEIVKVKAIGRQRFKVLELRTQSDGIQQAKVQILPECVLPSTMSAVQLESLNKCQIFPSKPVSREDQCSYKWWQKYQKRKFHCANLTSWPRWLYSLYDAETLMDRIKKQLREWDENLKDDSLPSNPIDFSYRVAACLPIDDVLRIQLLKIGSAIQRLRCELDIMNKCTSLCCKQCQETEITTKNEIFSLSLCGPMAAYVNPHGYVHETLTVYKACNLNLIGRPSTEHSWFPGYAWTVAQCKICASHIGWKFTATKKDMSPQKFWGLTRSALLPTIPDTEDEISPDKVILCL
assay_explanation: Protac activity at CRBN/AR in human LNCaP cells assessed as AR degradation at 0.1 uM by western blotting analysis relative to control
Format: cell-based
Where Activity equals or exceeds 7%, the correct label is YES; where it does not, the label is NO.

Known results for compounds:
compound: CC1(C)[C@H](NC(=O)c2ccc(N3CCN(CC4CCN(C(=O)C5CN(c6ccc7nnn(C8CCC(=O)NC8=O)c(=O)c7c6)C5)CC4)CC3)cc2)C(C)(C)[C@H]1Oc1ccc(C#N)c(Cl)c1 (stereo not given in full)
assigned_class: YES
--
compound: CC1(C)[C@H](NC(=O)c2ccc(N3CCN(CC4CCN(C(=O)C5CCN(c6ccc7nnn(C8CCC(=O)NC8=O)c(=O)c7c6)CC5)CC4)CC3)cc2)C(C)(C)[C@H]1Oc1ccc(C#N)c(Cl)c1 (stereo not given in full)
assigned_class: YES
--
compound: CC1(C)[C@H](NC(=O)c2ccc(N3CCN(CCC4CCN(C(=O)C5CN(c6ccc7nnn(C8CCC(=O)NC8=O)c(=O)c7c6)C5)CC4)CC3)cc2)C(C)(C)[C@H]1Oc1ccc(C#N)c(Cl)c1 (stereo not given in full)
assigned_class: YES

Task: Entry CC1(C)[C@H](NC(=O)c2ccc(N3CCN(C4CC5(CCN(c6cccc7nnn(C8CCC(=O)NC8=O)c(=O)c67)CC5)C4)CC3)cc2)C(C)(C)[C@H]1Oc1ccc(C#N)c(Cl)c1 (stereo not given in full) : is its Activity no less than 7%?
Output: NO
